# Tested on: MTT (mouse pheochromocytoma)
# assay.protocol: IC50 of cell viability (ATP content)
# settings: (24 or 48 h)
Counter-ions that a name gives are not always drawn.
Consider the following compounds and their measured IC50 of cell viability readings.

Use these answered entries as a reference point.
- compound: "CN1C[C@@H](\\C=C\\2[C@H]1CC3=C[NH]C4=C3C2=CC=C4)C(=O)N[C@]5(C)O[C@@]6(O)[C@@H]7CCCN7C(=O)[C@H](CC8=CC=CC=C8)N6C5=O.CN9C[C@@H](\\C=C\\%10[C@H]9CC%11=C[NH]C%12=C%11C%10=CC=C%12)C(=O)N[C@]%13(C)O[C@@]%14(O)[C@@H]%15CCCN%15C(=O)[C@H](CC%16=CC=CC=C%16)N%14C%13=O.O[C@H]([C@@H](O)C([O-])=O)C(O)=O [Ergotamine D-tartrate]"
  system: "MTT (mouse pheochromocytoma)"
  IC50 of cell viability: "> 46 µM"
- compound: "C[N+](C)(C)CCO [Choline bromide]"
  system: "MTT (mouse pheochromocytoma)"
  IC50 of cell viability: "> 46 µM"
- compound: "Cc1cccc(C)c1NC(=O)[C@H](C)N [Tocainide hydrochloride]"
  system: "MTT (mouse pheochromocytoma)"
  IC50 of cell viability: "> 46 µM"
- compound: "C1N2CN3CN1CN(C2)C3"
  system: "MTT (mouse pheochromocytoma)"
  IC50 of cell viability: "> 46 µM"
- compound: "O=C(NC(CO)C(O)c1ccc([N+](=O)[O-])cc1)C(Cl)Cl (centres undefined)"
  system: "MTT (mouse pheochromocytoma)"
  IC50 of cell viability: "> 46 µM"
- compound: "CCN(CC)CCOC(=O)C1(c2ccccc2)CCCC1 [CARAMIPHEN EDISYLATE]"
  system: "MTT (mouse pheochromocytoma)"
  IC50 of cell viability: "> 46 µM"

Query block: Provide IC50 of cell viability, recorded with MTT (mouse pheochromocytoma), of COc1ccc2c3c1O[C@H]1C(=O)CC[C@H]4[C@@H](C2)N(C)CC[C@]314 [HYDROCODONE BITARTRATE]
Result block: > 46 µM

Query block: For MTT (mouse pheochromocytoma), give IC50 of cell viability of the listed compound: O.O.O.O.O.O.O.O=S(=O)([O-])[O-].[Co+2] [Cobalt sulfate heptahydrate]
Result block: > 46 µM

Query block: Enter measured IC50 of cell viability, system MTT (mouse pheochromocytoma), for the compound shown: CN(C)c1ccc(O)c2c1CC1CC3C(N(C)C)C(=O)C(C(N)=O)C(=O)C3(O)C(=O)C1C2=O (centres undefined)
Result block: > 46 µM
